Assignment: determine reported emission maximum for the given compounds.
test: solvent given as SMILES; conditions: in ClCCl
Numbers only, in nm.

{"compound-string": "CCCCN(CCCC)c1ccc(C#Cc2cc(C#Cc3ccc(N(CCCC)CCCC)cc3)c(C#Cc3cc(C(F)(F)F)cc(C(F)(F)F)c3)cc2C#Cc2cc(C(F)(F)F)cc(C(F)(F)F)c2)cc1", "unit-abbrev": "nm", "emission maximum": 552}

Turning to the following compound.
emission maximum measured on FC(F)(F)c1ccc(/C2=C3N=C(C(c4ccccc4)=C/3c3ccccc3)/C(c3ccc(C(F)(F)F)cc3)=c3\[nH]/c(c(-c4ccccc4)c3-c3ccccc3)=C(/c3ccc(C(F)(F)F)cc3)C3=N/C(=C(/c4ccc(C(F)(F)F)cc4)c4[nH]c2c(-c2ccccc2)c4-c2ccccc2)C(c2ccccc2)=C3c2ccccc2)cc1 = 730

The reported numbers originate from the Deep4Chem optical property database.
